These data points were gathered from paper PMC7489219.

// reported inhibition at 10 µM per item
Test system: primary mouse cortical neurons
Construct: primary cortical neurons, DIV 10
Experiment notes: cells
Design: Protection from NMDA-induced (30 uM, 10 min) neuronal death; Hoechst nuclear morphology by automated microscopy
Condition details: Cortical neurone, 20 h, read-out: % inhibition, inhibition of NMDA-induced cell death (protection score), 30 min pre-treatment
Description: On DIV 10, compounds were applied to the cells reaching an end concentration of 10 μM. Cells were incubated for 30 min at 37 °C, 5% CO2 before adding NMDA (30 μM). Cells were incubated for another 10 min in the incubator, then washed twice with defined minimal medium containing 10 μM of the respective compound and incubated for an additional 20 h before readout. […] The survival rate S was calculated by dividing the number of living cells by the total number of cells. […]

Past entries and their recorded results:
>>> print(df.to_string())
                                   compound  reported
0  NC(=O)N1c2ccccc2C=Cc2ccccc21 [Carbamazepine (Carbatrol)]     2.33%
1  Cc1nc2n(c(=O)c1CCN1CCC(c3noc4cc(F)ccc34)CC1)CCCC2O (stereo not shown)    -1.54%
2  CCn1cc(C(=O)O)c(=O)c2cc(F)c(N3CCNCC3)cc21     2.34%

Output inhibition at 10 µM of `C[C@@H](c1ncncc1F)[C@](O)(Cn1cncn1)c1ccc(F)cc1F` 17.5%

* * *

// reported inhibition at 10 µM per item
Tested on: primary mouse cortical neurons
Construct: primary cortical neurons, DIV 10
Experiment notes: cells
Design: Protection from NMDA-induced (30 uM, 10 min) neuronal death; Hoechst nuclear morphology by automated microscopy
Condition details: Cortical neurone, 20 h, read-out: % inhibition, inhibition of NMDA-induced cell death (protection score), 30 min pre-treatment
Description: On DIV 10, compounds were applied to the cells reaching an end concentration of 10 μM. Cells were incubated for 30 min at 37 °C, 5% CO2 before adding NMDA (30 μM). Cells were incubated for another 10 min in the incubator, then washed twice with defined minimal medium containing 10 μM of the respective compound and incubated for an additional 20 h before readout. […] The survival rate S was calculated by dividing the number of living cells by the total number of cells. […]
Structures can show the parent of a compound that is named as a salt.
Numeric answer only, unit % assumed.

Past entries and their recorded results:
                                   compound      recorded_metric  unit_abbreviation  reported
0  CCn1cc(C(=O)O)c(=O)c2cc(F)c(N3CCNC(C)C3)c(F)c21 (stereo not drawn) [Lomefloxacin hydrochloride (Maxaquin)]  inhibition at 10 µM                  %      3.08
1  C[C@H](CCC(=O)O)[C@H]1CC[C@H]2[C@@H]3[C@H](O)C[C@@H]4C[C@H](O)CC[C@]4(C)[C@H]3CC[C@]12C  inhibition at 10 µM                  %     -2.92
2  CC(=O)OCC(=O)[C@@]1(O)CC[C@H]2[C@@H]3CCC4=CC(=O)CC[C@]4(C)[C@H]3C(=O)C[C@@]21C [Cortisone acetate (Cortone)]  inhibition at 10 µM                  %    -0.736
3   O=c1c(O)c(-c2ccc(O)cc2)oc2cc(O)cc(O)c12  inhibition at 10 µM                  %     -2.58

Output inhibition at 10 µM of `CCN(CC)CC(=O)Nc1c(C)cccc1C` -8.6

Output inhibition at 10 µM of CC(O)(CS(=O)(=O)c1ccc(F)cc1)C(=O)Nc1ccc(C#N)c(C(F)(F)F)c1 (stereo not drawn) [Bicalutamide (Casodex)] -3.38
